System: E. faecalis ACTCC 29212
Test: MIC, microdilution broth method (NCCLS)
Format: cell-based
Run Conditions: cation supplemented Mueller Hinton broth, 35° C., 16-20 hours; unit assumed
Property Name: MIC E. faecalis ACTCC 29212

Use the examples below as a reference point.
molecule="CC1COc2c(N3CCN(C)CC3)c(F)cc3c(=O)c(C(=O)O)cn1c23 (stereo not shown) [OFX, reference compound]" target_desc="E. faecalis ACTCC 29212" property_name="MIC E. faecalis ACTCC 29212" reported_measurement="2 µg/mL"
molecule="C1=CC(CCOc2ccc(CCCNCCN3CCCC3)cc2)(Cc2ccccc2)CCC1 (stereo not shown) [Compound 3]" target_desc="E. faecalis ACTCC 29212" property_name="MIC E. faecalis ACTCC 29212" reported_measurement="8 µg/mL"
molecule="NCCc1ccc(OCCC2(Cc3ccccc3)C=CCCC2)cc1 (stereo not shown) [Compound 17]" target_desc="E. faecalis ACTCC 29212" property_name="MIC E. faecalis ACTCC 29212" reported_measurement="8 µg/mL"

// switching to the query molecule
Q. Query MIC E. faecalis ACTCC 29212 for Clc1ccc(CC2(CCOc3ccc(CCNCCN4CCCC4)cc3)C=CCCC2)cc1 (stereo not shown) [Compound 34]
A. 4 µg/mL

----------
Tested on: E. faecalis ACTCC 29212
Test: MIC, microdilution broth method (NCCLS)
Type: cell-based
Run Conditions: cation supplemented Mueller Hinton broth, 35° C., 16-20 hours; unit assumed
Documented MIC E. faecalis ACTCC 29212 across a set of molecules
Answer with a number only, understood to be in µg/mL.

Use the examples below as a reference point.
molecule="COc1ccc(CC2(CCOc3ccc(CCCNC(=N)N)cc3)C=CCCC2)cc1 (centres unmarked)" reported_measurement=4
molecule="CNCCCc1ccc(OCCC2(c3ccc(F)cc3)C=CCCC2)cc1 (centres unmarked)" reported_measurement=8
molecule="NCCc1ccc(OCCC2(Cc3cc(Cl)cc(Cl)c3)C=CCCC2)cc1 (centres unmarked)" reported_measurement=8
molecule="COc1ccc(CC2(CCOc3ccc(CCN)cc3)C=CCCC2)cc1 (centres unmarked)" reported_measurement=8

Q. Query MIC E. faecalis ACTCC 29212 for NCCCc1cnc(NCCC2(Cc3ccccc3)C=CCCC2)nc1 (centres unmarked)
A. 32

----------
Documented MIC MRSA oc667 across a set of compounds
Tested on: MRSA oc667
Test: MIC, microdilution broth method (NCCLS)
Type: cell-based
Run Conditions: cation supplemented Mueller Hinton broth, 35° C., 16-20 hours; unit assumed
Answer with a number only, understood to be in µg/mL.

Use the examples below as a reference point.
compound="CC1COc2c(N3CCN(C)CC3)c(F)cc3c(=O)c(C(=O)O)cn1c23 (stereo not shown) [OFX, reference compound]" property_name="MIC MRSA oc667" measurement_unit=µg/mL reported_measurement=0.5
compound="NCCc1ccc(OCCC2(Cc3ccccc3)C=CCCC2)cc1 (stereo not shown)" property_name="MIC MRSA oc667" measurement_unit=µg/mL reported_measurement=8
compound="COc1ccc(CC2(CCOc3ccc(CCCNC(=N)N)cc3)C=CCCC2)cc1 (stereo not shown)" property_name="MIC MRSA oc667" measurement_unit=µg/mL reported_measurement=8

// switching to the query compound
Q. Query MIC MRSA oc667 for C1=CC(CCOc2ccc(CCCNCCN3CCCC3)cc2)(Cc2ccccc2)CCC1 (stereo not shown)
A. 8

----------
Test system: C. albicans 10231
Test: MIC, microdilution broth method (NCCLS)
Type: cell-based
Run Conditions: cation supplemented Mueller Hinton broth, 35° C., 16-20 hours; unit assumed
Documented MIC C. albicans 10231 across a set of molecules
Answer with a number only, understood to be in µg/mL.

Use the examples below as a reference point.
molecule="COc1ccc(CC2(CCOc3ccc(CCN)cc3)C=CCCC2)cc1 (centres unmarked)" property_name="MIC C. albicans 10231" reported_measurement=8
molecule="COc1ccc(CC2(CCOc3ccc(CCCNC(=N)N)cc3)C=CCCC2)cc1 (centres unmarked)" property_name="MIC C. albicans 10231" reported_measurement=4
molecule="CNCCCc1ccc(OCCC2(c3ccc(F)cc3)C=CCCC2)cc1 (centres unmarked)" property_name="MIC C. albicans 10231" reported_measurement=8

// switching to the query molecule
Q. Please look at Clc1ccc(CC2(CCOc3ccc(CCNCCN4CCCC4)cc3)C=CCCC2)cc1 (centres unmarked) and tell me its recorded MIC C. albicans 10231 on C. albicans 10231.
A. 8

----------
Target Desc: UniProtKB P16497
Sequence (P16497 whole entry): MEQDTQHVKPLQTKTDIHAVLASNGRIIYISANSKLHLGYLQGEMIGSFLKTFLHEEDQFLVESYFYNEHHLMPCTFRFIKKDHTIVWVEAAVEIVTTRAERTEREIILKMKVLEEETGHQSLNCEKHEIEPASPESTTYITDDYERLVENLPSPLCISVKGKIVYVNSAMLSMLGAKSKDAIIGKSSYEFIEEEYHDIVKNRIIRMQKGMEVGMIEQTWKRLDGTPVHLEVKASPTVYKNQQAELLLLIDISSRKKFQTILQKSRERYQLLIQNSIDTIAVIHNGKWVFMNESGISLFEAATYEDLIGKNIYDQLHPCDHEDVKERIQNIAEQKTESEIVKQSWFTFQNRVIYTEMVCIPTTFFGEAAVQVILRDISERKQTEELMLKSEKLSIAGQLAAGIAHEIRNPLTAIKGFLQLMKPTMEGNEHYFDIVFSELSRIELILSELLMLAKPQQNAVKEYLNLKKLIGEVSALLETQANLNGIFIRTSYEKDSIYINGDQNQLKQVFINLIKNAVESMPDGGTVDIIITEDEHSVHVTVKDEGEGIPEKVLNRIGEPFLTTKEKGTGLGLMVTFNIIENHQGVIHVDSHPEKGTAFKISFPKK
Test: Autophosphorylation of Kinase A and Transphosphorylation of SPoOF Assay
Format: biochemical
Run Conditions: inhibition of Kinase A autophosphorylation / SpoOF transphosphorylation, [32P]ATP, gel, phosphoimager
Label no if IC min falls below 100 mM; label yes in every other case.

Reference set (5 entries):
molecule="CNCCCc1ccc(OCCC2(C(C)C)C=CCCC2)cc1 (stereo not drawn) [Compound 35]" target_desc="UniProtKB P16497" group=yes
molecule="NCCc1ccc(OCCC2(Cc3ccccc3)CCCCC2)cc1 [Compound 13]" target_desc="UniProtKB P16497" group=no
molecule="O=C(O)CCc1ccc(OCCC2(c3ccc(F)cc3)C=CCCC2)cc1 (stereo not drawn) [Compound 12]" target_desc="UniProtKB P16497" group=yes
molecule="CNCCc1ccccc1OCCC1(Cc2ccccc2)C=CCCC1 (stereo not drawn) [Compound 36]" target_desc="UniProtKB P16497" group=yes
molecule="Clc1ccc(CC2(CCOc3ccc(CCNCCN4CCCC4)cc3)C=CCCC2)cc1 (stereo not drawn) [Compound 34]" target_desc="UniProtKB P16497" group=yes

Q. State whether the measured IC min reaches 100 mM, counting equality as reaching it, for CCNCCc1ccc(NCCC2(Cc3ccccc3)C=CCCC2)cc1 (stereo not drawn) [Compound 10]
A. yes

Q. State whether the measured IC min reaches 100 mM, counting equality as reaching it, for NCCc1ccc(OCCC2(Cc3ccccc3)C=CCCC2)cc1 (stereo not drawn) [Compound 17]
A. no

Q. State whether the measured IC min reaches 100 mM, counting equality as reaching it, for N=C(N)NCCc1ccc(OCCC2(Cc3cccc(Cl)c3)C=CCCC2)cc1 (stereo not drawn) [Compound 45]
A. no

Q. State whether the measured IC min reaches 100 mM, counting equality as reaching it, for CNCCCc1ccc(OCCC2(CCCc3ccccc3)C=CCCC2)cc1 (stereo not drawn) [Compound 31]
A. no

----------
Documented MIC K. pneum. oc1943 across a set of compounds
System: K. pneum. oc1943
Test: MIC, microdilution broth method (NCCLS)
Format: cell-based
Run Conditions: cation supplemented Mueller Hinton broth, 35° C., 16-20 hours; unit assumed

Use the examples below as a reference point.
compound="COc1ccc(CC2(CCOc3ccc(CCCNC(=N)N)cc3)C=CCCC2)cc1 (centres unmarked) [Compound 53]" property_name="MIC K. pneum. oc1943" reported_measurement="> 128 µg/mL"
compound="CNCCCc1ccc(OCCC2(c3ccc(F)cc3)C=CCCC2)cc1 (centres unmarked) [Compound 24]" property_name="MIC K. pneum. oc1943" reported_measurement="> 128 µg/mL"
compound="NCCc1ccc(OCCC2(Cc3ccccc3)C=CCCC2)cc1 (centres unmarked) [Compound 17]" property_name="MIC K. pneum. oc1943" reported_measurement="> 64 µg/mL"
compound="NCCc1ccc(OCCC2(Cc3cc(Cl)cc(Cl)c3)C=CCCC2)cc1 (centres unmarked) [Compound 59]" property_name="MIC K. pneum. oc1943" reported_measurement="> 128 µg/mL"

// switching to the query compound
Q. Query MIC K. pneum. oc1943 for COc1ccc(CC2(CCOc3ccc(CCN)cc3)C=CCCC2)cc1 (centres unmarked) [Compound 41]
A. > 128 µg/mL

----------
Tested on: MRSA oc2089
Test: MIC, microdilution broth method (NCCLS)
Format: cell-based
Run Conditions: cation supplemented Mueller Hinton broth, 35° C., 16-20 hours; unit assumed
Property Name: MIC MRSA oc2089

Use the examples below as a reference point.
compound="NCCCc1cnc(NCCC2(Cc3ccccc3)C=CCCC2)nc1 (stereo not drawn)" reported_measurement="32 µg/mL"
compound="C1=CC(CCOc2ccc(CCCNCCN3CCCC3)cc2)(Cc2ccccc2)CCC1 (stereo not drawn)" reported_measurement="8 µg/mL"
compound="Clc1ccc(CC2(CCOc3ccc(CCNCCN4CCCC4)cc3)C=CCCC2)cc1 (stereo not drawn)" reported_measurement="4 µg/mL"
compound="CC1COc2c(N3CCN(C)CC3)c(F)cc3c(=O)c(C(=O)O)cn1c23 (stereo not drawn) [OFX, reference compound]" reported_measurement="4 µg/mL"
compound="NCCc1ccc(OCCC2(Cc3cc(Cl)cc(Cl)c3)C=CCCC2)cc1 (stereo not drawn)" reported_measurement="8 µg/mL"

// switching to the query compound
Q. Query MIC MRSA oc2089 for CNCCCc1ccc(OCCC2(c3ccc(F)cc3)C=CCCC2)cc1 (stereo not drawn)
A. 8 µg/mL
